This section presents compounds with their documented IC50 values.
Biological target: drug-resistant HIV-1 PR (PR02-A) harboring L10I/G48S/I54V/V82F/L90M mutations (Human immunodeficiency virus type 1 group M subtype B, UniProt P12497, G536S/I542V/L498I/L578M/V570F)
Experiment: biochemical
MEASURE: IC50 (µM)

[[record]]
smiles_string = "CC(C)CN(C[C@@H](O)[C@H](Cc1ccccc1)NC(=O)O[C@H]1CCOC1)S(=O)(=O)c1ccc(N)cc1"
measure = "IC50"
quantitative_readout = 0.0935

[[record]]
smiles_string = "COC(=O)N[C@H](C(=O)N[C@@H](Cc1ccccc1)[C@@H](O)CN(Cc1ccc(-c2ccccn2)cc1)NC(=O)[C@@H](NC(=O)OC)C(C)(C)C)C(C)(C)C"
measure = "IC50"
quantitative_readout = 0.137

